Tested on: COR-L23
experimental_details: relative viability (nuclei count vs DMSO), 5 days (fraction); higher = more cells survive
details: first compound 2 µM
Collected relative viability values appear next to each entry.
When you answer, write just the number.

molecule	study_target	relative viability
CN1CCN(CCOc2cc(OC3CCOCC3)c3c(Nc4c(Cl)ccc5c4OCO5)ncnc3c2)CC1 [Saracatinib] + Nc1nc2[nH]cc(CCc3ccc(C(=O)N[C@@H](CCC(=O)O)C(=O)O)cc3)c2c(=O)[nH]1 [Pemetrexed] (partner 0.2 µM)	COR-L23	0.184

Q: Please give the measured relative viability for this molecule: Cc1csc(=NC2CCCCC2)n1/N=C/c1ccc(O)c(O)c1O [MIM1] + CC(=O)Nc1cccc(-n2c(=O)n(C3CC3)c(=O)c3c(Nc4ccc(I)cc4F)n(C)c(=O)c(C)c32)c1 [Trametinib] (partner 0.02 µM)
A: 0.571

Q: Please give the measured relative viability for this molecule: Cc1csc(=NC2CCCCC2)n1/N=C/c1ccc(O)c(O)c1O [MIM1] + CC1(C)CCC(c2ccc(Cl)cc2)=C(CN2CCN(c3ccc(C(=O)NS(=O)(=O)c4ccc(N[C@H](CCN5CCOCC5)CSc5ccccc5)c(S(=O)(=O)C(F)(F)F)c4)cc3)CC2)C1 [Navitoclax] (partner 0.5 µM)
A: 0.997

Q: Please give the measured relative viability for this molecule: Cc1csc(=NC2CCCCC2)n1/N=C/c1ccc(O)c(O)c1O [MIM1] + Cc1nc(NC(=O)N2CCC[C@H]2C(N)=O)sc1-c1ccnc(C(C)(C)C(F)(F)F)c1 [Alpelisib] (partner 2 µM)
A: 0.537
